Test system: RAW-Dual (murine macrophage reporter line)
assay_explanation: NF-kB reporter (SEAP) activity fold change vs agonist alone; higher = enhanced NF-kB activity
test_settings: modulator concentration 10 µM; agonist: MPLA […]
parameter_measured: NF-kB reporter
Could you keep your reply to the number by itself?

Dear colleague, I am looking for the recorded NF-kB reporter of the following compound: `CC(C)(C(=O)c1cccnc1)c1cccnc1`
0.939

// lookup NF-kB reporter for `O=C(Nc1cccc(Cl)c1Cl)c1cc2nc(-c3ccco3)cc(C(F)(F)F)n2n1`
0.918

Please give the measured NF-kB reporter for this compound: `Cc1ccc(S(=O)(=O)Nc2c3ccccc3c(O)c3c4c(oc23)CC(C)(C)CC4=O)cc1`
0.935

###

In this section we review reported IRF reporter values for a set of compounds.
Tested on: RAW-Dual (murine macrophage reporter line)
assay_explanation: IRF reporter (Lucia luciferase) activity fold change vs agonist alone; higher = enhanced IRF activity
test_settings: modulator concentration 10 µM; agonist: LPS 0.1 ug/mL
Enter a number only.

Sample records with IRF reporter:
{"compound": "Cc1cc(C(=O)N2CCC(Oc3cccc4cccnc34)CC2)c(C)o1", "assay_system": "RAW-Dual (murine macrophage reporter line)", "parameter_measured": "IRF reporter", "result": 1.07}
{"compound": "CCN1C(=O)C(=Cc2c[nH]c3ccccc23)SC1=S", "assay_system": "RAW-Dual (murine macrophage reporter line)", "parameter_measured": "IRF reporter", "result": 1.02}
{"compound": "Cc1ccc(C=NN=C(c2ccccc2)c2ccccc2)o1", "assay_system": "RAW-Dual (murine macrophage reporter line)", "parameter_measured": "IRF reporter", "result": 0.975}
{"compound": "CC(C)(C)c1ccc(-c2nc(-c3cccc([N+](=O)[O-])c3)no2)cc1", "assay_system": "RAW-Dual (murine macrophage reporter line)", "parameter_measured": "IRF reporter", "result": 1.01}
{"compound": "CCOC(=O)C1=C(C)NC(C)=C(C(=O)OCC)C1c1ccco1", "assay_system": "RAW-Dual (murine macrophage reporter line)", "parameter_measured": "IRF reporter", "result": 0.999}

Read the next record carefully.
Reported IRF reporter for CC(C)NCC(O)c1ccc(NS(C)(=O)=O)cc1.Cl (stereo unspecified) : what is it?
0.978

###

System: RAW-Dual (murine macrophage reporter line)
assay_explanation: IRF reporter (Lucia luciferase) activity fold change vs agonist alone; higher = enhanced IRF activity
test_settings: modulator concentration 10 µM; agonist: LPS 0.1 ug/mL
As shown below, each of these compounds has a reported IRF reporter value.
API doc: respond with a numeric literal and nothing else, no unit.

{"compound": "OCCN1CCN(C(c2cccs2)c2ccc3cccnc3c2O)CC1 (configuration not stated)", "IRF reporter": 0.332}
{"compound": "Cc1ccc(S(=O)(=O)NC(=O)NN2CC3CCCC3C2)cc1 (configuration not stated)", "IRF reporter": 1.23}
{"compound": "Cc1ccc(C(=O)C(C)CN2CCCCC2)cc1.Cl (configuration not stated)", "IRF reporter": 1.27}
{"compound": "Cc1c(OCC(=O)OC(C)C)ccc2c3c(c(=O)oc12)CCCC3", "IRF reporter": 1.49}

What value of IRF reporter has been recorded for this entry: `NC[C@H]1CC[C@H](C(=O)O)CC1`
1.01

Item under review: `Nc1cccc(O)c1` . Reported IRF reporter?
0.946

Record request: IRF reporter value, item `CC(=NNC(=O)CNc1ccccc1C)c1ccc(Br)cc1`
1.23

###

System: RAW-Dual (murine macrophage reporter line)
assay_explanation: NF-kB reporter (SEAP) activity fold change vs agonist alone; higher = enhanced NF-kB activity
test_settings: modulator concentration 10 µM; agonist: LPS 0.1 ug/mL
Recorded NF-kB reporter, one value per entry.
Field format: numeric only.

Some molecules with recorded NF-kB reporter:
{"molecule": "CN(C)CC#CCNC(=O)Nc1ccc(C(F)(F)F)cc1", "NF-kB reporter": 0.899}
{"molecule": "O=S(=O)(Nc1nc2ccccc2nc1Nc1ccc2c(c1)OCCO2)c1cccs1", "NF-kB reporter": 1.02}
{"molecule": "Cn1nc(CNS(=O)(=O)c2cccc(C(F)(F)F)c2)c2c1CCCC2", "NF-kB reporter": 0.98}
{"molecule": "O=C(O)c1ccc(-n2nc(-c3ccccc3O)nc2-c2ccccc2O)cc1", "NF-kB reporter": 0.917}
{"molecule": "N#C[C@@H]1C[C@@H]2C[C@@H]2N1C(=O)[C@@H](N)C12CC3CC(CC(O)(C3)C1)C2.O", "NF-kB reporter": 0.968}
{"molecule": "CCN(CC)CCOC(=O)C(c1ccccc1)c1ccccc1 [Prestw-75]", "NF-kB reporter": 1.14}
{"molecule": "COc1cc2ccc(=O)oc2cc1O", "NF-kB reporter": 0.862}
{"molecule": "CN1CCC(=C2c3ccccc3CCc3sccc32)CC1.O=C(O)CC(O)C(=O)O", "NF-kB reporter": 0.705}

State the recorded NF-kB reporter for this entry: `NC(=O)c1ncn([C@@H]2O[C@H](CO)[C@@H](O)[C@H]2O)n1`
1.07

GET /values?readout=NF-kB reporter&item= `CN1CCc2c(sc3[nH]c(=S)n(CCc4ccccc4)c(=O)c23)C1`
0.814

Reported NF-kB reporter for `CN(C)CCN(Cc1ccccc1)c1ccccn1.Cl` : what is it?
0.911

Reported NF-kB reporter, molecule CN1CCN(C(CNC(=O)c2ccccc2Br)c2ccc(F)cc2)CC1 (configuration not stated) : ____
0.967

Which value of NF-kB reporter has been reported for `c1cn2cc(-c3ccc4cn[nH]c4c3)nc(Nc3ccc(N4CCOCC4)cc3)c2n1` in the records?
0.759

Quick one: NF-kB reporter of COc1ccc(-c2nc3cc(C4=NNC(=O)CC4C)ccc3[nH]2)cc1 (configuration not stated) ?
1.37

Query (molecule): `COc1c(Cl)cc(C(=O)Nc2cccc(NC(=O)c3ccco3)c2)cc1Cl` ; field requested: NF-kB reporter
1.01

###

System: RAW-Dual (murine macrophage reporter line)
assay_explanation: NF-kB reporter (SEAP) activity fold change vs agonist alone; higher = enhanced NF-kB activity
test_settings: modulator concentration 10 µM; agonist: LPS 0.1 ug/mL
parameter_measured: NF-kB reporter

Example results:
{"compound": "COc1c(OC)c2occc2c2oc(=O)ccc12", "result": 0.86}
{"compound": "CC(C)(C(=O)c1cccnc1)c1cccnc1", "result": 0.894}
{"compound": "CC1(C)CCC2(C(=O)O)CCC3(C)C(=CCC4C5(C)CCC(O)C(C)(C)C5CCC43C)C2C1 (configuration not stated)", "result": 1.12}
{"compound": "Br.NC(=O)C(c1ccccc1)(c1ccccc1)[C@@H]1CCN(CCc2ccc3c(c2)CCO3)C1", "result": 1.25}
{"compound": "O=C(CCCCC(=O)NN=Cc1cccc(O)c1)NN=Cc1cccc(O)c1", "result": 1.08}

Which NF-kB reporter reading was recorded for the compound `COc1ccc(C=Nn2cc(-c3ccc(Cl)cc3)nc2N=Cc2cc(Br)cc(Br)c2O)cc1` ?
0.919

Need NF-kB reporter of COC(=O)C1=C(C)NC(C)=C(C(=O)OCCN2CCN(C(c3ccccc3)c3ccccc3)CC2)C1c1cccc([N+](=O)[O-])c1 (configuration not stated) , thanks.
0.631

Please look up its NF-kB reporter: `O=C(O)CCC(=O)Nc1ccc(Br)cc1C(=O)c1ccc(Cl)cc1`
1.05

###

Test system: RAW-Dual (murine macrophage reporter line)
assay_explanation: NF-kB reporter (SEAP) activity fold change vs agonist alone; higher = enhanced NF-kB activity
test_settings: modulator concentration 10 µM; agonist: LPS 0.1 ug/mL
parameter_measured: NF-kB reporter
Give the figure by itself; no unit, no explanation.

Worked examples follow.
{"molecule": "CCOC(=O)c1ccccc1NC(=O)CN(c1cc(C)ccc1OC)S(C)(=O)=O", "NF-kB reporter": 1.03}
{"molecule": "CCCCOc1ccc(C(=O)Nc2cc(-c3nc4ccccc4o3)ccc2OC)cc1", "NF-kB reporter": 1.08}
{"molecule": "Fc1ccc(Nc2nc(NN=Cc3c[nH]nc3-c3ccccc3)nc(N3CCOCC3)n2)cc1", "NF-kB reporter": 0.981}

Give the measured NF-kB reporter of CC1=C(CC(=O)O)c2cc(F)ccc2/C1=C\c1ccc(S(C)=O)cc1 (configuration not stated) .
0.828

Which measured NF-kB reporter value corresponds to `COc1ccc(-c2nc(CNC(=O)C3CCN(c4cc(C5CC5)ncn4)CC3)cs2)cc1` ?
1.4

Any idea what NF-kB reporter was measured for CC#CCn1c(N2CCCC(N)C2)nc2c1c(=O)n(Cc1nc(C)c3ccccc3n1)c(=O)n2C (configuration not stated) ?
1.08

What does the data say about its NF-kB reporter? Entry: `COc1ccc(Nc2nc(Nc3ccc(F)cc3)nc(N3CCOCC3)n2)cc1OC`
1.61

Where do the numbers come from? From the supplement of paper PMC10646978.
